- System: Escherichia coli
- Assay Summary: Antibacterial activity against Escherichia coli MTCC 1089 after 24 hr by disk diffusion method
- Assay type: functional
- Stated Conditions: Escherichia coli, MTCC 1089, 24 h
Measured Metric: MIC (µg/mL)
One number for each entry, in µg/mL.

Previously resolved entries follow.
CC(=O)Nc1cccc(OCc2cc(=O)oc3ccc4ccccc4c23)c1    25
COc1ccc2oc(=O)cc(COc3cccc(OCc4cc(=O)oc5ccc(OC)cc45)c3)c2c1    12.5
O=c1cc(COc2cccc(O)c2)c2c(ccc3ccccc32)o1    25

Would you be so kind as to report MIC for each listed record?
1. CCN(CC)c1cccc(OCc2cc(=O)oc3ccc(C)cc23)c1
2. CCN(CC)c1cccc(OCc2cc(=O)oc3ccc(Br)cc23)c1
3. O=c1cc(COc2cccc(OCc3cc(=O)oc4ccc(Br)cc34)c2)c2cc(Br)ccc2o1
4. O=c1cc(COc2cccc(O)c2)c2cc(Cl)ccc2o1
5. CC(=O)Nc1cccc(OCc2cc(=O)oc3c2ccc2ccccc23)c1
6. CCN(CC)c1cccc(OCc2cc(=O)oc3c2ccc2ccccc23)c1
7. O=c1cc(COc2cccc(OCc3cc(=O)oc4ccc5ccccc5c34)c2)c2c(ccc3ccccc32)o1

A:
50
12.5
12.5
12.5
25
25
25
